MEASURED_ON: CDK2/cyclin A (as used in the binding assay) (UniProt P24941 1-298; P20248 1-432)
EXPERIMENT: FP binding assay
No end group written: not given here. Pyrazole N‑cap (R1 OCH3, R2 H, R3 H, R4 CH3, W N, X N, Y C, Z C) = not defined here; Pyrazole N‑cap (R1 Cl, R2 H, R3 Cl, R4 CH3, W N, X N, Y C, Z C) = not defined here; Pyrazole N‑cap (R1 F, R2 H, R3 H, R4 CH3, W N, X N, Y C, Z C) = not defined here
For each of the binders below, state its IC50.
Response body: numeric value in µM, unit text excluded.

The recorded IC50 for entry {Triazole N‑cap, 4‑chlorophenyl triazole (R1 H, R2 Cl, R3 H, R4 CH3, W N, X N, Y N, Z C)}-RLIF (also: cap structure given only by scaffold parameters, also called 4-chlorophenyl triazole; 4-chloro phenyl triazole) [SCCP 5774 (Triazole N-cap ligated to RLIF)] equals 11.5

The recorded IC50 for entry {Pyrazole N‑cap (R1 OCH3, R2 H, R3 H, R4 CH3, W N, X N, Y C, Z C)}-RLIF (reading uncertain; also: cap structure given only by scaffold parameters) [SCCP 5766 (Pyrazole N-cap ligated to RLIF)] equals 64.1

The recorded IC50 for entry {2‑(3-fluorophenyl)‑1H‑imidazole‑4‑carbonyl}-RLIF (also called 2-(3-fluorophenyl)-1H-imidazole-4-carboxamide) [SCCP 5852 (Imidazole N-cap ligated to RLIF)] equals 34.3

The recorded IC50 for entry {Triazole N‑cap (R1 H, R2 H, R3 H, R4 H, W N, X N, Y N, Z C)}-RLIF (also: cap structure given only by scaffold parameters) [SCCP 5843 (Triazole N-cap ligated to RLIF)] equals 16.2

The recorded IC50 for entry {Pyrazole N‑cap (R1 F, R2 H, R3 H, R4 CH3, W N, X N, Y C, Z C)}-RLIF (reading uncertain; also: cap structure given only by scaffold parameters) [SCCP 5771 (Pyrazole N-cap ligated to RLIF)] equals 29.6

The recorded IC50 for entry {Pyrazole N‑cap (R1 Cl, R2 H, R3 Cl, R4 CH3, W N, X N, Y C, Z C)}-RLIF (reading uncertain; also: cap structure given only by scaffold parameters) [SCCP 5763 (Pyrazole N-cap ligated to RLIF)] equals 21.8
